- Tested on: NCI-H226 lung
- experiment_notes: NCI-60 one-dose screen, 48 h (100 = growth as untreated, 0 = no growth, -100 = all killed)
- reported_conditions: 10 µM unless noted
This is part of a sample that, as a whole, favours compounds with a hit. Of some 83,000 tested, about 20% had one in any assay.
Assign growth to each entry below.
Field format: number, assumed %, no unit text.

The compound listed as O=C(CI)Nc1ccc(Br)cc1 has a reported growth of 69.7

The compound listed as CC(C)(C)N(Cc1ccccc1)N=O has a reported growth of 91.7

The compound listed as CC(=O)Oc1ccc(Cl)cc1 has a reported growth of 91.3

The compound listed as CN=C(NN)NN has a reported growth of 109

The compound listed as O=S(=O)(Cl)c1ccccc1 (tested in a mixture with another compound) has a reported growth of 97.3

The compound listed as CC(C)Nc1ccc(Nc2ccccc2)cc1 has a reported growth of 51.1

The compound listed as C[CH2][Sn]([CH2]C)([CH2]C)[NH]S(=O)(=O)c1ccc(C)cc1 has a reported growth of 116

The compound listed as COc1cc(/C=C\c2cc(OC)c(OC)c(OC)c2)cc(N/C=C\C(=O)c2ccc(OC(F)(F)F)cc2)c1OC has a reported growth of 54.4

The compound listed as NC(=O)NC(=O)CI has a reported growth of 95.1

The compound listed as O=CN1N=C(c2ccccc2)CC1c1sc(N(CCCl)CCCl)nc1Cl (configuration not stated) has a reported growth of 85.1

The compound listed as CC(=O)[O][Hg][c]1nc2c(c(=O)n(C)c(=O)n2C)n1C has a reported growth of 108

The compound listed as O=C(O)C1[O][Sb][O]C1C(=O)O (configuration not stated) has a reported growth of 93.9

---

- Test system: HL-60(TB) leukemia
- experiment_notes: NCI-60 one-dose screen, 48 h (100 = growth as untreated, 0 = no growth, -100 = all killed)
- reported_conditions: 10 µM unless noted
This is part of a sample that, as a whole, favours compounds with a hit. Of some 83,000 tested, about 20% had one in any assay.
Label rule, in plain words: growth of 30% and up is T, under 30% is F.

Prompt: Could you verify whether the entry C[C@@H]1CC[C@@H]2[C@@H]1[C@H](OC(=O)/C=C/C1CCCCC1)[C@]1(C3CCCCC3)C[C@@H](OC(=O)CO)[C@@]2(C)O1 shows growth of no less than 30%?
Response: F

Prompt: Could you verify whether the entry CC1(C)CC2=C3C=C[C@@H]4[C@@]5(C)CC[C@H](O)C(C)(C)[C@@H]5CC[C@@]4(C)[C@]3(C)CC[C@@]2(C(=O)O)CC1=O shows growth of no less than 30%?
Response: T

Prompt: Could you verify whether the entry Cn1cccc1-c1nc2c3c(ccc2[nH]1)C(=O)c1ccccc1C3=O shows growth of no less than 30%?
Response: T

Prompt: Could you verify whether the entry NC(=O)c1nc2c([nH]c1=O)CCCC2 shows growth of no less than 30%?
Response: T

Prompt: Could you verify whether the entry Nc1cc(Cl)cc2cccnc12 shows growth of no less than 30%?
Response: T

Prompt: Could you verify whether the entry CC(=O)n1c(-c2ccc(Cl)c(Cl)c2)cn(-c2ccc(Cl)cc2)c1=O shows growth of no less than 30%?
Response: T

Prompt: Could you verify whether the entry CCN(CC)CCCCNc1c2ccccc2[n+](C)c2c1[nH]c1ccccc12 shows growth of no less than 30%?
Response: F

Prompt: Could you verify whether the entry C=CC(=O)N[C@@H](Cc1ccc(-c2cc(Cl)cc(Cl)c2)cc1)[C@@H](O)[C@H](O)C(=O)O shows growth of no less than 30%?
Response: T
